molecular target: human platelets in platelet-rich plasma (Homo sapiens, UniProt P05106+P08514); assay: In-vitro human platelet aggregation in platelet-rich plasma (PRP), ADP-induced; format: cell-based; conditions: linear regression of dose response curve
Sequence (P08514 32-1039): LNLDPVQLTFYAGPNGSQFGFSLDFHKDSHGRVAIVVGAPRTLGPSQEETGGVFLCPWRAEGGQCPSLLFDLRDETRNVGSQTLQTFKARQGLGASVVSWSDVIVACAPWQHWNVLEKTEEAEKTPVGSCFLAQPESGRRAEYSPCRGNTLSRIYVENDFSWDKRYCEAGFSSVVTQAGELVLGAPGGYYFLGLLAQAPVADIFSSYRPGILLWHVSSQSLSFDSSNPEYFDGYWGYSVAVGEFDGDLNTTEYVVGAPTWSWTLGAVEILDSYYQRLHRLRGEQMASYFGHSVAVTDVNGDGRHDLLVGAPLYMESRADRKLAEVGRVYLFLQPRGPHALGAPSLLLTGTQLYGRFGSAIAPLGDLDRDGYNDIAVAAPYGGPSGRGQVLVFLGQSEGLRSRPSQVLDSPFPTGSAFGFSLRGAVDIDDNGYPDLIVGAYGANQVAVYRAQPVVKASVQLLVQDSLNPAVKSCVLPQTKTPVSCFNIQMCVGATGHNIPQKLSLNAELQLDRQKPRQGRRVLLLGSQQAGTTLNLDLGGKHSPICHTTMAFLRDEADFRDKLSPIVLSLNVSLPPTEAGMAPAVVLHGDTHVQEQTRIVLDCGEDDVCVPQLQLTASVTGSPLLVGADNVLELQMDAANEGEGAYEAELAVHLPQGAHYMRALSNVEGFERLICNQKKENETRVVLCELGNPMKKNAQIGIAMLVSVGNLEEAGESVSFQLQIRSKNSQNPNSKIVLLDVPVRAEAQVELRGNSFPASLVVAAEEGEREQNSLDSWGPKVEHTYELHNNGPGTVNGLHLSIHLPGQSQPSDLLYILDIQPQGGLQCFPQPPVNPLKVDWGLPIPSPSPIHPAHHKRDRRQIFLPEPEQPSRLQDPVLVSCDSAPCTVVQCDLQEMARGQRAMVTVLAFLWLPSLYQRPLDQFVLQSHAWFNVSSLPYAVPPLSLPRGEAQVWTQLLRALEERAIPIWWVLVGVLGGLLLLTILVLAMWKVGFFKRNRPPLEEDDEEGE
Sequence (P05106 27-788): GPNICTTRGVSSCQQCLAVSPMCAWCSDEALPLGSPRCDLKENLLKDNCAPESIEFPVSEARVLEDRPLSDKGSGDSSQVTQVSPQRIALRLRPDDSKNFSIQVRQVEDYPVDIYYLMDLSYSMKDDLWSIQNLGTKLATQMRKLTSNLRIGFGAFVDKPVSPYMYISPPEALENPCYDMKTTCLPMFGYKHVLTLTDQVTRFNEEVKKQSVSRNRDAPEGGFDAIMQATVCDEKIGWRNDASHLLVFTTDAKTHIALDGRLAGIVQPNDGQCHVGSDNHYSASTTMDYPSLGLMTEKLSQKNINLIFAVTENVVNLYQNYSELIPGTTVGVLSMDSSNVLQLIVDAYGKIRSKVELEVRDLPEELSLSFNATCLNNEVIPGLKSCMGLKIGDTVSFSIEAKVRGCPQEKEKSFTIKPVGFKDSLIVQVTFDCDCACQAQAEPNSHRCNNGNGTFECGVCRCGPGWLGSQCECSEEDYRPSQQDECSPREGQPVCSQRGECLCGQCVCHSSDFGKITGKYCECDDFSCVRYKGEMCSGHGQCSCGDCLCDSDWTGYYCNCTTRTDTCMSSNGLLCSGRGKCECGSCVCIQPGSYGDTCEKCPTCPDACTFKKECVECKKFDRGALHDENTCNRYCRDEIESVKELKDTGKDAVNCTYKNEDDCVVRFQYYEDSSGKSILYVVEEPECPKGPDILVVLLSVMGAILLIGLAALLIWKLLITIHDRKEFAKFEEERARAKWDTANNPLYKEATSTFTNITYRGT
pIC50: −log10 of the molar value.
Measure: pIC50

- COc1cc(C)c(CC(NC(=O)[C@H](CC(=O)O)NC(=O)CNC(=O)[C@@H](N)CCCNC(=N)N)C(N)=O)c(C)c1 (stereo partly shown): 4.05

====

target: washed human platelets (Homo sapiens, UniProt P05106+P08514); assay: Inhibition of thrombin-induced platelet aggregation in washed human platelets; settings: linear regression of dose response curve
Sequence (P08514 32-1039): as the sequence (P08514 32-1039) above
Sequence (P05106 27-788): as the sequence (P05106 27-788) above
pIC50: −log10 of the molar value. Residues, ends and D or L forms follow the SMILES beside them.
Listing of recorded pIC50 by entry.
Measure: pIC50

- NC(=O)[C@H](Cc1ccccc1)NC(=O)[C@H](CC(=O)O)NC(=O)CNC(=O)[C@@H](N)CCCN=C(N)N [RGDF--NH2, reference compound] (H-RGDF-NH2): 5.00
- COc1ccc(C[C@H](NC(=O)[C@H](CC(=O)O)NC(=O)CNC(=O)CCCCNC(=N)N)C(N)=O)cc1: 5.00
- COc1ccc(C[C@H](NC(=O)[C@H](CC(=O)O)NC(=O)CNC(=O)[C@@H](N)CCCNC(=N)N)C(N)=O)cc1 [RGD(O--methyl-Tyr)--NH2, Arg-Gly-Asp-(O-methyltyrosine)-amide] (H-RGDY(Me)-NH2): 4.70
- COc1ccc(C[C@H](NC(=O)[C@H](CC(=O)O)NC(=O)CNC(=O)CCCCCNC(=N)N)C(N)=O)cc1: 5.00
- CC(=O)N[C@@H](CCCN=C(N)N)C(=O)NCC(=O)N[C@@H](CC(=O)O)C(=O)N[C@@H](Cc1ccc(O)cc1)C(N)=O [Ac--RGDY--NH2] (Ac-RGDY-NH2): 4.30
- COc1ccc(C[C@H](NC(=O)[C@H](CC(=O)O)NC(=O)CNC(=O)[C@H](CCCNC(=N)N)NC(C)=O)C(N)=O)cc1 [Ac--RGD(O--methyl-Tyr)--NH2] (Ac-RGDY(Me)-NH2): 4.70
- COc1cc(C)c(CC(NC(=O)[C@H](CC(=O)O)NC(=O)CNC(=O)[C@@H](N)CCCNC(=N)N)C(N)=O)c(C)c1 (stereo partly shown): 4.70

====

molecular target: washed human platelets (Homo sapiens, UniProt P05106+P08514); test: Inhibition of thrombin-induced platelet aggregation in washed human platelets; assay type: cell-based; conditions: peptide 10^-4 M
Residues, ends and D or L forms follow the SMILES beside them.
Measure: inhibition at 100 µM (%)

- N=C(N)NCCC[C@H](N)C(=O)NCC(=O)N[C@@H](CC(=O)O)C(=O)N[C@@H](Cc1ccc(O)cc1)C(N)=O [RGDY--NH2, reference compound] (H-RGDY-NH2): 45
- COc1ccc(C[C@H](NC(=O)[C@H](CC(=O)O)NC(=O)CNC(=O)[C@H](CCCNC(=N)N)NC(C)=O)C(N)=O)cc1 [Ac--RGD(O--methyl-Tyr)--NH2] (Ac-RGDY(Me)-NH2): 78
- N=C(N)NCCC[C@H](N)C(=O)NCC(=O)N[C@@H](CC(=O)O)C(=O)N[C@@H](CO)C(=O)O [RGDS, Arg-Gly-Asp-Ser, reference compound]: 71
- COc1ccc(C[C@H](NC(=O)[C@H](CC(=O)O)NC(=O)CNC(=O)CCCCNC(=N)N)C(N)=O)cc1: 90
- COc1ccc(C[C@H](NC(=O)[C@H](CC(=O)O)NC(=O)CNC(=O)CCCCCNC(=N)N)C(N)=O)cc1: 82
- COc1cc(C)c(CC(NC(=O)[C@H](CC(=O)O)NC(=O)CNC(=O)[C@@H](N)CCCNC(=N)N)C(N)=O)c(C)c1 (some centres unmarked): 78
- N=C(N)NCCC[C@H](N)C(=O)NCC(=O)N[C@@H](CC(=O)O)C(=O)N[C@@H](Cc1ccccc1)C(N)=O [RGDF--NH2, reference compound] (H-RGDF-NH2): 77
- N=C(N)NCCC[C@H](NC(=O)CN)C(=O)NCC(=O)N[C@@H](CC(=O)O)C(=O)N[C@@H](CO)C(=O)N1CCC[C@H]1C(N)=O [GRGDSP--NH2, reference compound]: 55
- CCOc1ccc(C[C@H](NC(=O)[C@H](CC(=O)O)NC(=O)CNC(=O)[C@@H](N)CCCNC(=N)N)C(N)=O)cc1 [RGD(O--ethyl-Tyr)--NH2, Arg-Gly-Asp-(O-ethyltyrosine)-amide] (H-RGDY(Et)-NH2): 54
- COc1ccc(C[C@H](NC(=O)[C@H](CC(=O)O)NC(=O)CNC(=O)[C@@H](N)CCCNC(=N)N)C(N)=O)cc1 [RGD(O--methyl-Tyr)--NH2, Arg-Gly-Asp-(O-methyltyrosine)-amide] (H-RGDY(Me)-NH2): 79
- CC(=O)N[C@@H](CCCNC(=N)N)C(=O)NCC(=O)N[C@@H](CC(=O)O)C(=O)N[C@@H](Cc1ccc(O)cc1)C(N)=O [Ac--RGDY--NH2] (Ac-RGDY-NH2): 68
